Hello, the source for this data is paper PMC8248988, in case you need it.

Molecular target: T1, TAEHDEL retrieval signal peptide
T1 chain: TAEHDEL
Assay: [3H]-peptide filter binding assay, pH 5.4
Quantity kind: Kd (nM)
// return numeric value only (unit: nM, not printed)

Here is how some binders turned out for Kd.
KDEL receptor 2 (protein) MNIFRLTGDLSHLAAIIILLLKIWKSRSCAGISGKSQLLFALVFTTRYLDLFTSFISLYNTSMKLIYIACSYATVYLIYMKFKATYDGNHDTFRVEFLIVPVGGLSFLVNHDFSPLEILFTFSIYLESVAILPQLFMISKTGEAETITTHYLFFLGLYRALYLVNWIWRYYFEGFFDLIAVVAGVVQTVLYCDFFYLYVTKVLKGKKLSLPA : 5500
KDEL receptor 2 (protein) MNIFRLTGDLSHLAAIIILLLKIWKSRSCAGISGKSQLLFALVFTTRYLDLFTSFISLYNTSMKLIYIACSYATVYLIYMKFKATYDGNHDTFRVEFLIVPVGGLSFLVNHDFSPLDILWTFSIYLESVAILPQLFMISKTGEAETITTHYLFFLGLYRALYLVNWIWRYYFEGFFDLIAVVAGVVQTVLYCDFFYLYVTKVLKGKKLSLPA : 520
KDEL receptor 2 (protein) MNIFRLTGDLSHLAAIIILLLKIWKSRSCAGISGKSQLLFALVFTTRYLDLFTSFISLYNTSMKLIYIACSYATVYLIYMKFKATYDGNHDTFRVEFLIVPVGGLSFLVNHDFSPLAILWTFSIYLESVAILPQLFMISKTGEAETITTHYLFFLGLYRALYLVNWIWRYYFEGFFDLIAVVAGVVQTVLYCDFFYLYVTKVLKGKKLSLPA : 520

Retrieve Kd measured for KDEL receptor 2 (protein) MNIFRLTGDLSHLAAIIILLLKIWKSRSCAGISGKSQLLFALVFTTRYLDLFTSFISLYNTSMKLIYIACSYATVYLIYMKFKATYDGNHDTFRVEFLIVPVGGLSFLVNHDFSPLEILWTFSIYLESVAILPQLFMISKTGEAETITTHYLFFLGLYRALYLVNWIWRYYFEGFFDLIAVVAGVVQTVLYCDFFYLYVTKVLKGKKLSLPA and print it.
260
